- Study target: human NK-1 receptor (Homo sapiens, UniProt P25103)
- Sequence (P25103 whole entry): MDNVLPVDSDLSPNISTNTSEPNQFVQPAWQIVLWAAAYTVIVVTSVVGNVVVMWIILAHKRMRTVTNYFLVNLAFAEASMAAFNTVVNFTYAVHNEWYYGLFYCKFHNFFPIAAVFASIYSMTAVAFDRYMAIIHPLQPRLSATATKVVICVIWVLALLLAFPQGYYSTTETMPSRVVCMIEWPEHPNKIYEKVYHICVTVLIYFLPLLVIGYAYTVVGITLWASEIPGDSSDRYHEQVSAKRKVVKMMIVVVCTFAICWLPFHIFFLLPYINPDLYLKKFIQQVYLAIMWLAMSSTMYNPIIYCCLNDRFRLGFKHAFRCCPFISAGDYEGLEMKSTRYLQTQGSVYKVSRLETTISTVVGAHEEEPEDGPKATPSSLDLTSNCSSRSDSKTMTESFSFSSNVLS
Property name: pKi
pKi field: float, defined as -log10 of concentration (mol/L).

Please review the following examples before continuing.
C=CCN(CCc1c[nH]c2ccccc12)CCC(CN(C)C(=O)c1cc(OC)c(OC)c(OC)c1)c1ccc(Cl)c(Cl)c1 (centres unmarked)	7.64
COc1cc(C(=O)N(C)CC(CCN(C)CCc2c[nH]c3ccc(F)cc23)c2ccc(Cl)c(Cl)c2)cc(OC)c1OC (racemic)	7.92
COc1cc(OC)cc(C(=O)N2CCC(CCN(C)CCc3c[nH]c4ccccc34)(c3ccc(Cl)c(Cl)c3)C2)c1 (centres unmarked) [Example 14a]	6.63

Quick one: pKi for CN(CCc1c[nH]c2ccccc12)CCC(CN(C)C(=O)c1ccc2c(c1)OCO2)c1ccc(Cl)c(Cl)c1 (centres unmarked) [Example 12a] ?
6.78

// query: COc1cc(C(=O)N(C)CC(CCN(C)CCc2c[nH]c3ccccc23)c2ccc(Cl)c(Cl)c2)cc(OC)c1OC (centres unmarked)
7.60

* * *

Catalogue of Ki readings, one per entry.
- Study target: human NK-2 receptor (Homo sapiens)
- Construct: expressed in transfected cells; host or cells: Chinese Hamster ovary (CHO) cells
- Sequence (P21452 whole entry): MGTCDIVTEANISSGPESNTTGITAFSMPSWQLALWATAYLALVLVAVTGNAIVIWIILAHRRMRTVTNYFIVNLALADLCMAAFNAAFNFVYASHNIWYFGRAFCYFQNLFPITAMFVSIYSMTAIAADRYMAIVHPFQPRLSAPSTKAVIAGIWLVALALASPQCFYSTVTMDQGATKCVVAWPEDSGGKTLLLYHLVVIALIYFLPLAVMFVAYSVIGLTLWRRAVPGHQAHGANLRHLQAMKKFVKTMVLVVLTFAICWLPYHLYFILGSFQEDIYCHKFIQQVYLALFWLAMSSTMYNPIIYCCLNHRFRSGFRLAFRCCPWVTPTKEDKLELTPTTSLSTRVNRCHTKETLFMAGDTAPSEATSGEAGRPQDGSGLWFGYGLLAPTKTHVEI
- Assay method text: Neurokinin receptor binding assay, NK-2 ([3H]-Neurokinin A, CHO cell membranes)
- Condition details: Ki according to Cheng and Prusoff from competition binding curves; read-out: Ki (NK2)

CN(CCc1c[nH]c2ccccc12)CCC(CN(C)C(=O)c1ccc2c(c1)OCO2)c1ccc(Cl)c(Cl)c1 (stereo not shown) [Example 12a]	59 nM

What measured Ki goes with COc1cc(C(=O)N(C)CC(CCN(C)CCc2c[nH]c3ccccc23)c2ccc(Cl)c(Cl)c2)cc(OC)c1OC (stereo not shown) ?
33 nM

Next entry: COc1cc(OC)cc(C(=O)N2CCC(CCN(C)CCc3c[nH]c4ccccc34)(c3ccc(Cl)c(Cl)c3)C2)c1 (stereo not shown) [Example 14a]
30 nM

Thanks! And COc1cc(C(=O)N(C)CC(CCN(C)CCc2c[nH]c3ccc(F)cc23)c2ccc(Cl)c(Cl)c2)cc(OC)c1OC (racemic) ?
10 nM

* * *

- Study target: NK3 (Homo sapiens, UniProt P29371)
- Sequence (P29371 whole entry): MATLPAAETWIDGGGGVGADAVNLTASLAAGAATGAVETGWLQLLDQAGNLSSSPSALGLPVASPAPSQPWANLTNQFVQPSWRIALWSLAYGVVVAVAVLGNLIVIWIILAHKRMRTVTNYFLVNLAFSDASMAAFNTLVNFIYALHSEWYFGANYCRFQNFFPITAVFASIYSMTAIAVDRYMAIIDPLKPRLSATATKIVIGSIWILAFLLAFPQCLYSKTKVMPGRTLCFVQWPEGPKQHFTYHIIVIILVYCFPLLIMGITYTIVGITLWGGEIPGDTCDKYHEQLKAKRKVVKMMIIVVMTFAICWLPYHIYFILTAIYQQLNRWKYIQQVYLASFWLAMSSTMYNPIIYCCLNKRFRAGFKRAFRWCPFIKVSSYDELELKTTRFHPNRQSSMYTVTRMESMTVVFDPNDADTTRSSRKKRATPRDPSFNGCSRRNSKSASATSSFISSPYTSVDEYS
Property name: Ki (nM)
Output spec: scalar in nM, unitless text.

For COc1cc(C(=O)N(C)CC(CCN(C)CCc2c[nH]c3ccccc23)c2ccc(Cl)c(Cl)c2)cc(OC)c1OC (stereo not shown) [Example 2] , what is its reported Ki?
448

Sourced from patent EP0848706B1
